Each entry below carries its recorded GI50.
- Tested on: K-562 leukemia
- Test summary: NCI tumour cell line growth inhibition, 48 h

[
  {
    "Molecule smiles": "O=C(NCCNc1nccc(-c2c(-c3cccc(O)c3)nc3sccn23)n1)c1ccccc1",
    "GI50": "9.11 µM"
  },
  {
    "Molecule smiles": "Nc1ccccc1C#C/C=C\\C#Cc1c(F)c(F)c(F)c(F)c1F",
    "GI50": "16.3 µM"
  },
  {
    "Molecule smiles": "CC(=O)OCCOCN1C(=O)NC(=O)/C(=C/c2cccc(OCc3ccccc3)c2)C1=O",
    "GI50": "34.9 mg/L"
  }
]

* * *

- Tested on: M14 melanoma
- Test summary: NCI tumour cell line growth inhibition, 48 h; in the data active = GI50 below about 0.43 µM; inactive = the rest
Outcome codes: active, inactive

[
  {
    "Molecule smiles": "CN(C)c1ccc(/C=c2/c3ccccc3n3c2c2cc(F)ccc2[n+]3C)cc1",
    "Assigned class": "inactive"
  },
  {
    "Molecule smiles": "NC(=Nc1ccc(N)cc1)C(N)=Nc1ccc(N)cc1",
    "Assigned class": "inactive"
  },
  {
    "Molecule smiles": "CC(=O)OCCOCN1C(=O)NC(=O)/C(=C/c2cccc(OCc3ccccc3)c2)C1=O",
    "Assigned class": "inactive"
  },
  {
    "Molecule smiles": "COc1cc2c(=O)n(CCN(C)C)c3c4cc5c(cc4ccc3c2cc1OC)OCO5",
    "Assigned class": "active"
  },
  {
    "Molecule smiles": "Cc1cnc(Nc2ccc(N3CCN(C)CC3)cc2)nc1Nc1ccc(Cl)c(NS(=O)(=O)C(C)(C)C)c1",
    "Assigned class": "active"
  }
]

* * *

- Test system: 786-0 renal
- Test summary: NCI tumour cell line growth inhibition, 48 h
Each entry below carries its recorded TGI.

[
  {
    "Compound": "Cc1ccc(C)c(NC(=O)CC2SC(=Nc3ccccc3Cl)NC2=O)c1 (stereo not given)",
    "TGI": "> 100 µM"
  },
  {
    "Compound": "OC12c3ccccc3C3CCC4(OCCO4)C3C1c1ccccc12 (stereo not given)",
    "TGI": "> 100 µM"
  },
  {
    "Compound": "CN(C)CCNC(=O)c1cccc2ccc(-c3ccc(-c4ccccc4)cc3)nc12",
    "TGI": "3.39 µM"
  },
  {
    "Compound": "COc1ccc(/C=C\\c2cc(OC)c(OC)c(OC)c2)cc1OCC(=O)Nc1ccc2nc(C)sc2c1",
    "TGI": "> 100 µM"
  },
  {
    "Compound": "CC1(C)OC[C@@H](O)[C@H](Br)CO1",
    "TGI": "> 100 µM"
  },
  {
    "Compound": "CN(/N=C/c1cccc2cccnc12)c1c([N+](=O)[O-])cc([N+](=O)[O-])cc1[N+](=O)[O-]",
    "TGI": "> 100 µM"
  },
  {
    "Compound": "CC(C)/C(=N\\[N+](C)(C)C)c1ccccc1",
    "TGI": "> 100 µM"
  },
  {
    "Compound": "Cc1ccc(O)c(C2=CC(c3cccc(Br)c3)SC(N)=N2)c1 (stereo not given)",
    "TGI": "74.4 µM"
  },
  {
    "Compound": "COc1ccc(N(/C=C/C(=O)C(F)(F)F)CC(=O)c2ccc(Cl)cc2)cc1",
    "TGI": "57.8 µM"
  },
  {
    "Compound": "COc1ccccc1NCc1cccc2c(=O)c3ccc(Cl)cc3oc12",
    "TGI": "> 100 µM"
  }
]
